- systemTested: T1, hRET.mmh (human, UniProt P07949 29-635, biotinylated in the ELISA of Example 4 (biot-hRET.mmh); not in the SPR of Example 3)
- T1 construct: also called biot-hRET.mmh; soluble monomeric human RET
- experimentNotes: SPR Biacore T200, mAb capture, 25 C
parameterMeasured: t½ (min)
Numbers only, in min.

[[record]]
binder = "H4H8046P (antibody, human IgG4, V domains shown, human IgG4 Fc (H4H prefix)) VH: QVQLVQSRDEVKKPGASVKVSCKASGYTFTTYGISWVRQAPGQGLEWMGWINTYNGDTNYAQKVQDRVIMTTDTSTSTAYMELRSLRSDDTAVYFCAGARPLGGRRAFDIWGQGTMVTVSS VL: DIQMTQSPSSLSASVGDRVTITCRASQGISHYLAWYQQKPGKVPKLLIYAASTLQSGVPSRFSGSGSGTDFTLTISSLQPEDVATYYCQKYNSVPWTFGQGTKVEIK"
testresult = 38

[[record]]
binder = "H4H8062P (antibody, human IgG4, V domains shown, human IgG4 Fc (H4H prefix)) VH: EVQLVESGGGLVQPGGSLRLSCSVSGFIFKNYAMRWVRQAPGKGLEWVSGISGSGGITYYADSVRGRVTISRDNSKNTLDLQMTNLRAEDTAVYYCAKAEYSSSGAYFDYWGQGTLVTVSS VL: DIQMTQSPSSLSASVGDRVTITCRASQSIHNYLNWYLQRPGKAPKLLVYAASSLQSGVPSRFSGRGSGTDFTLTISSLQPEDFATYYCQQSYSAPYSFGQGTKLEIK"
testresult = 31

[[record]]
binder = "H4H8076P (antibody, human IgG4, V domains shown, human IgG4 Fc (H4H prefix)) VH: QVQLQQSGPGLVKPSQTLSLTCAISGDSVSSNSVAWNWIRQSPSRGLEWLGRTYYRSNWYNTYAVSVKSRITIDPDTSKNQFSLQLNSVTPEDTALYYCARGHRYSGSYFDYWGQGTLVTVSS VL: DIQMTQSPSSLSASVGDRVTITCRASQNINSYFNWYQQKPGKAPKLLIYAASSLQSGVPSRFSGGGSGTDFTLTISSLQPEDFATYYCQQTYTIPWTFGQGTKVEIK"
testresult = 34

[[record]]
binder = "H4H8085P (antibody, human IgG4, V domains shown, human IgG4 Fc (H4H prefix)) VH: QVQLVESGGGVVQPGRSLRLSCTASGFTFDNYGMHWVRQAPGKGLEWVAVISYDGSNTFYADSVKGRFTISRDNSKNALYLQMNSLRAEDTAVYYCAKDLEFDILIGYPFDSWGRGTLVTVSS VL: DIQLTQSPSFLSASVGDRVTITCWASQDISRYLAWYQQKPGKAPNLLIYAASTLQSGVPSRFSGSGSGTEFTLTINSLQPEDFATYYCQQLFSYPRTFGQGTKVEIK"
testresult = 62


Moving on to the next binder.
I'd like to know its t½. The binder in question is H4H8056P (antibody, human IgG4, V domains shown, human IgG4 Fc (H4H prefix)) VH: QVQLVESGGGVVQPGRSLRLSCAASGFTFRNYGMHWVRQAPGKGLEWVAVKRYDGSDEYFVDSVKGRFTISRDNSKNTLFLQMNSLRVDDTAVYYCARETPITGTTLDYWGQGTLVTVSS VL: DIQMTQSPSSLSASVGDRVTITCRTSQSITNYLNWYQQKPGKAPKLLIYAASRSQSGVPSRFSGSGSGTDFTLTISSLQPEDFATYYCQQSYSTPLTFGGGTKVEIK
21

Origin of values: patent US20220185900A1
